B1: FUT8 (parent)
chain: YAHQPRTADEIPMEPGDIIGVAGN

Variants of: B1
Test: protein stability index of a GFP-peptide fusion (GPS, HEK-293T) (PSI 1-6); higher = more stable;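 note: lentivirally expressed fusions sorted by FACS into six bins by GFP to DsRed ratio, PSI derived from sequencing read proportions per bin multiplied by bin number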
Details: c terminus: a fixed tail appended
Where protein stability index equals or exceeds 4, the correct label is yes; where it does not, the label is no.

Given the entry `Q4V` , answer whether its protein stability index meets or surpasses 4.
no

Given the entry `R6Q` , answer whether its protein stability index meets or surpasses 4.
yes

Given the entry `M13I` , answer whether its protein stability index meets or surpasses 4.
no

Given the entry `R6Y` , answer whether its protein stability index meets or surpasses 4.
no

Given the entry `E10A` , answer whether its protein stability index meets or surpasses 4.
no

Given the entry `D17V` , answer whether its protein stability index meets or surpasses 4.
no

Given the entry `G23F` , answer whether its protein stability index meets or surpasses 4.
no

Given the entry `N24H` , answer whether its protein stability index meets or surpasses 4.
no

Given the entry `I11E` , answer whether its protein stability index meets or surpasses 4.
yes

Given the entry `G20H` , answer whether its protein stability index meets or surpasses 4.
yes

Given the entry `Y1K` , answer whether its protein stability index meets or surpasses 4.
yes

Given the entry `P12M` , answer whether its protein stability index meets or surpasses 4.
no

Given the entry `D17C` , answer whether its protein stability index meets or surpasses 4.
no

Given the entry `T7E` , answer whether its protein stability index meets or surpasses 4.
yes

Given the entry `A22K` , answer whether its protein stability index meets or surpasses 4.
yes

Given the entry `A22N` , answer whether its protein stability index meets or surpasses 4.
yes

Given the entry `D17R` , answer whether its protein stability index meets or surpasses 4.
no

Given the entry `E14M` , answer whether its protein stability index meets or surpasses 4.
no

Given the entry `G23N` , answer whether its protein stability index meets or surpasses 4.
no
